B1: LINE1-full (parent)
chain: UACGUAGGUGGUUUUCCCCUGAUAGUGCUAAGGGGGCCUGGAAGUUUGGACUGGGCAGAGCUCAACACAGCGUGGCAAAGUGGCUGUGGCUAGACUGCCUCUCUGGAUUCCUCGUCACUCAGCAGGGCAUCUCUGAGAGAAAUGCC

variants of: B1; test: self-cleavage, relative activity (ratio to wild type); higher = more cleavage; in vitro, sequencing; the parent is a self-cleaving ribozyme
OBSERVED PROPERTY: self-cleavage
Numbers only.

As a guide, the following entries are already answered.
Looking up C120A A121U , I see its self-cleavage listed as 0.93

Looking up U26A C145A , I see its self-cleavage listed as 1.07

Looking up A77U U134A , I see its self-cleavage listed as 0.57

Looking up U23C U119C , I see its self-cleavage listed as 1.61

Looking up A6G C56U , I see its self-cleavage listed as 0.27

Each of the following entries comes with a recorded value; kindly state self-cleavage for each.
1. U100A G139U
2. U46A U85C
3. G4A A121C
4. G53A U112C
5. G93U A107G
6. A79G U109A
7. G35A G86A
8. A6G G97A

0.31
0.08
1.72
1.25
0.06
1.19
0.05
0.18

Each of the following entries comes with a recorded value; kindly state self-cleavage for each.
1. C37U A43G
2. U5C G144A
3. C66U A107G

[1.32, 1.39, 0.03]

Each of the following entries comes with a recorded value; kindly state self-cleavage for each.
1. U26C G88A
2. A43G U134C
3. U112G A136G

0.05
1.09
2.3

Each of the following entries comes with a recorded value; kindly state self-cleavage for each.
1. U46A
2. A24U A129U
3. U87C U143C
4. C84A A140G
5. A65G
6. U13A U47C

1.17
1.26
0.21
0.13
0.06
0.59

Values compiled from the RNAGym collection of RNA variant scans (doi:10.7554/elife.90254).
